procedureText: NCI Yeast Anticancer Drug Screen. Data for the sgs1 mgt1 strain (AID 161);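 also: 0% = growth of cultures given vehicle only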
testParameters: S. cerevisiae sgs1 mgt1 strain, at 50.0 µM
About 79,000 compounds went through this panel and 15% of them were active in at least one assay; those are over-represented in the sample as a whole. The source made the active and inactive calls. Rule as the data show it: active = growth inhibition above about 70%; inactive = the rest.
Possible outcomes: 1 (yes) for active, 0 (no) for inactive

compound	className
CN(C)CCCNC(=O)Nc1ccc(Cl)cc1	0 (no)
COC(=O)/C(C#N)=C\N1CCNC1=S	0 (no)
C/C(=N/Nc1ccc([N+](=O)[O-])cc1[N+](=O)[O-])c1ccc(Sc2ccc(/C(C)=N/Nc3ccc([N+](=O)[O-])cc3[N+](=O)[O-])cc2)cc1	0 (no)
Clc1ccc(Cl)c(N=Nc2cc3c4c(c2)CCN4CCC3)c1	0 (no)
O=C(NC(Cc1c[nH]c2ccccc12)C(=O)O)C(=O)c1c[nH]c2ccccc12 (centres undefined)	0 (no)
COC(=O)c1cc(C(=O)OC)c(C/C(=N/NC(=O)C[N+](C)(C)C)C(=O)Nc2cccc(C(F)(F)F)c2)nc1C/C(=N/NC(=O)C[N+](C)(C)C)C(=O)Nc1cccc(C(F)(F)F)c1	0 (no)
COc1cc(/C=C(\C#N)C(=O)c2ccccc2)ccc1O	0 (no)
CC(C)(CC(O)C#N)/[N+]([O-])=[N+](\[O-])C(C)(C)CC(O)C#N (centres undefined)	0 (no)
CO/C(N)=C(\C#N)N=Cc1cccs1	0 (no)
CC(C)N(C(=O)C12C3C4C1(I)C1C2C3(I)C41C(=O)N(C(C)C)C(C)C)C(C)C (centres undefined)	0 (no)
N#CC(C(=O)CCC(=O)C(C#N)c1c(Cl)cccc1Cl)c1c(Cl)cccc1Cl (centres undefined)	0 (no)
CC(=O)Nc1cc2c(cc1[N+](=O)[O-])-c1ccc([N+](=O)[O-])cc1C2=O	0 (no)
Oc1ccc(Cl)cc1CC(=S)N1CCOCC1	0 (no)
O=C(O)/C(=C\c1cccc(O)c1)c1ccccc1	0 (no)
COc1cc(OC)c2nccc(NCCCN(C)C)c2c1[N+](=O)[O-]	0 (no)
CCCCCCCCCCCCCCCC(=O)N(CCCCCCCCCCC(=O)O)CC(O)C(O)C(OC1OC(CO)C(O)C(O)C1O)C(O)CO (centres undefined)	0 (no)
COc1ccc(-c2cc(C)cc(O)c2)c(OC)c1OC	0 (no)
CC(NC(=O)CNP(=O)(c1ccccc1)c1ccccc1)C(=O)NC(Cc1ccccc1)C(=O)OCc1ccccc1 (centres undefined)	0 (no)
OCCN(Cc1ccccc1)Cc1ncccc1O	0 (no)
COC(=O)C(C(C)C(C)[N+](=O)[O-])=P(c1ccccc1)(c1ccccc1)c1ccccc1 (centres undefined)	0 (no)
CS(=O)(=O)OCCC(O)COS(C)(=O)=O (centres undefined)	0 (no)
O=C(O)CCCC/C=C/CCCCCCC1C=CCC1 (centres undefined)	0 (no)
CC1(C)C(C#N)C1C1=C(N2CCOCC2)[C@]2(C)C(OC(=O)c3ccccc3)CC[C@@H]2C1 (some centres undefined)	0 (no)
O=[N+]([O-])c1ccc2nc(Cl)n[n+]([O-])c2c1	1 (yes)
CCSc1cc2c(cc1O)CC[C@@H]1[C@@H]2CC[C@]2(C)[C@@H](O)CC[C@@H]12	0 (no)
O=c1[nH]c2cc(Cl)ccc2nc1/C=C(\O)c1ccc(O)cc1	0 (no)
O=C(/C=C/c1ccc(OCC(=O)N2CCN(c3ccccc3)CC2)cc1)c1ccc(Cl)cc1	0 (no)
CC(=O)CC(=O)N1C(C)CCCC1C (centres undefined)	0 (no)
CC(C)CCN(CC(C)C)C(=O)c1ccc([N+](=O)[O-])cc1 (tested in a mixture with another compound)	0 (no)
COc1cc(C(C)Cl)ccc1OC(=O)c1ccccc1 (centres undefined)	0 (no)
COc1ccn(C2OC(=O)C(C)(C)C2=O)c(=O)n1 (centres undefined)	0 (no)
CC1SCC(=O)N1c1nncs1 (centres undefined)	0 (no)
CC[n+]1cc([N+](=O)[O-])ccc1Cl	0 (no)
COc1cc2ccccc2oc1=O	0 (no)
CCc1cccc(C(C)C)c1NC(=O)C(=O)C(Cc1nc2ccccc2[nH]c1=O)C(=O)OC (centres undefined)	0 (no)
NC(C(=O)O)c1ccc(F)cc1 (centres undefined)	0 (no)
O=C(O)c1ccc(N=Nc2ccccc2)cc1	0 (no)
COc1ccc2c(c1OC)C1NCCc3cc4c(cc3C1(OC)C2=O)OCO4 (centres undefined)	0 (no)
CN1CCCS/C1=C1/SC(=S)N(c2ccccc2)C1=O	0 (no)
CN(C)c1ccc(-c2cccc[n+]2C)cc1	0 (no)
COc1ccc2c(c1)CCc1nc(N)nc(N)c1-2	0 (no)
O=C(c1cccnc1)c1cc(-c2ccccn2)c(=O)n2ccccc12	0 (no)
O=C(O)C1CCCCN1C(=O)c1ccccc1 (centres undefined)	0 (no)
C#CC(CCC)NCCCC (centres undefined)	0 (no)
